- PROTOCOL SUMMARY: Confirmation Concentration-Response Assay for Epigenetic Modulators
- EXPERIMENTAL SETUP: murine C127i cells, silenced GFP reporter derepression, imaging; series mostly up to 46 µM
Active and inactive are the calls of the source. The call rests on the fitted dose curve; in most records, active means well fitted activation curve with a large enough effect; inactive means flat fitted curve, though single readings scatter.
Just give me one of these, please: t = active, f = inactive

Completed entries (count: 6):
[[record]]
molecule = "CCN(CC)c1ccc2cc(-c3nc4ccccc4[nH]3)c(=O)oc2c1"
group = "t"

[[record]]
molecule = "O=C(Oc1cccc2cccnc12)c1ccc(Br)o1"
group = "t"

[[record]]
molecule = "CN1CCN(Cc2cc(Cl)c3cccnc3c2O)CC1"
group = "t"

[[record]]
molecule = "Cc1ccc2ccc(C(Nc3cccc(Cl)c3)c3ccccn3)c(O)c2n1 (centres undefined)"
group = "f"

[[record]]
molecule = "COc1ccc(NC(c2ccccn2)c2ccc3cccnc3c2O)cc1 (centres undefined)"
group = "f"

[[record]]
molecule = "CC(C)C(=O)NC(c1ccc(N(C)C)cc1)c1ccc2cccnc2c1O (centres undefined)"
group = "t"


Please turn your attention to the following entry.
// query Just curious, what result did O=C(CSc1cccc2cccnc12)NCc1ccccc1 get here?
// result f

---

- PROTOCOL SUMMARY: Confirmation Concentration-Response Assay for Epigenetic Modulators
- EXPERIMENTAL SETUP: murine C127i cells, silenced GFP reporter derepression, imaging; series mostly up to 46 µM
The source made the active and inactive calls. Calls follow the shape of the dose curve; as a rule, active = well fitted activation curve with a large enough effect; inactive = flat fitted curve, though single readings scatter.
Just give me one of these, please: active, inactive

Completed entries (count: 3):
[[record]]
compound = "O=C1OCCC1Sc1cccc2cccnc12 (configuration not stated)"
group = "active"

[[record]]
compound = "CC(/C=C/C(=O)NO)=C\\[C@@H](C)C(=O)c1ccc(N(C)C)cc1"
group = "active"

[[record]]
compound = "O=C(CC(c1ccco1)S(=O)(=O)c1ccccc1)c1ccc(F)cc1 (configuration not stated)"
group = "inactive"


// query Just curious, what result did Cc1cc(C)n(-c2nc(N(C)C)nc(N(C)C)n2)n1 get here?
// result inactive

// query Do the same for COCc1cc(CN2CCN(C)CC2)c(O)c2ncccc12 please
// result active

// query Do the same for O=C(CSc1cccc2cccnc12)Nc1ccccc1 please
// result inactive

// query Do the same for CC(C)C(=O)NC(c1ccc(C(C)C)cc1)c1cc(Cl)c2cccnc2c1O (configuration not stated) please
// result inactive

// query Do the same for Cc1ccc(N=Nc2ccc(O)c3ncccc23)cc1C please
// result inactive

---

- PROTOCOL SUMMARY: Confirmation Concentration-Response Assay for Epigenetic Modulators
- EXPERIMENTAL SETUP: murine C127i cells, silenced GFP reporter derepression, imaging; series mostly up to 46 µM
Active and inactive are the calls of the source. The call rests on the fitted dose curve; in most records, active means well fitted activation curve with a large enough effect; inactive means flat fitted curve, though single readings scatter.
Just give me one of these, please: active, inactive

Completed entries (count: 4):
[[record]]
compound = "O=Nc1ccc(O)c2ncccc12"
group = "active"

[[record]]
compound = "Oc1c(C(Nc2ccccc2C(F)(F)F)c2ccccn2)ccc2cccnc12 (centres undefined)"
group = "inactive"

[[record]]
compound = "CC(C)C(=O)NC(/C=C/c1ccccc1)c1cc([N+](=O)[O-])c2cccnc2c1O (centres undefined)"
group = "inactive"

[[record]]
compound = "O=C(Cc1ccccc1)NC(c1ccco1)c1ccc2cccnc2c1O (centres undefined)"
group = "active"


// query Just curious, what result did Cc1cc(C)n(-c2nc(NC(C)C)nc(NC(C)(C)C)n2)n1 get here?
// result inactive

// query Do the same for Oc1c(C(Nc2ccccn2)c2ccccn2)ccc2cccnc12 (centres undefined) please
// result active

// query Do the same for CCNc1nc(NCC)nc(-n2cc(C(=O)c3cc(Cl)ccc3O)cn2)n1 please
// result inactive

// query Do the same for CN(C)C(=O)CSc1cccc2cccnc12 please
// result active

// query Do the same for CC(C)C(=O)NC(c1cccs1)c1cc(Cl)c2cccnc2c1O (centres undefined) please
// result inactive
